tested on: Poliovirus 2; experiment: In vitro anti-picornavirus activity against Poliovirus type-2.; type: functional; settings: Enterovirus C
Quantity Kind: MIC

// assay Poliovirus 2, entry `Cc1cc(CCCCCCCOc2ccc(OC(C)C)cc2)on1` , MIC value = 0.1 µg/mL

// assay Poliovirus 2, entry `Cc1cc(CCCCCCCOc2ccc(C(C)C)cc2)on1` , MIC value = 0.04 µg/mL

// assay Poliovirus 2, entry `Cc1cc(CCCCCCCOc2ccc(Cl)cc2)on1` , MIC value = 0.3 µg/mL

// assay Poliovirus 2, entry `CCOC(=O)c1ccc(OCCCCCCCc2c(CC)noc2CC)cc1` , MIC value = 0.4 µg/mL
